Origin of measurements: patent US20150030595A1

Biological target: T1, ACVR2B-Fc fusion protein (human, UniProt Q13705 19-137)
T1 construct: also called water-soluble ACVR2B
T1 sequence: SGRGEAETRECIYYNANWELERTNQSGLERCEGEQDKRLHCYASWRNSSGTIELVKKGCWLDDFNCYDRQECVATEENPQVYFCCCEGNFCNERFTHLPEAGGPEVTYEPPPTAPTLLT
Experiment: phage ELISA; OD on ACVR2B divided by OD on a-myc
assayEndpoint: Ratio
Give only the figure.

Dear colleague, I am looking for the recorded Ratio of the following binder: ACVR2B D07 (monoclonal scFv-phage) (scFv, V domains shown, also called D7) VH: QVQLVQSGAEVKKPGASVKVSCKASGYTFTSYYMHWVRQAPGQGLEWMGIINPSGGSTSYAQKFQGRVTMTRDTSTSTVYMELSSLRSEDTAVYYCAKDQSRGWYSNFDSWGQGTLVTVSS VL: DIQMTQSPSTLSASVGDRVTITCRASQTVSNWLAWYQLKPGKAPKLLIYKASSLESGVPSRFSGTGSETEFTLTISSLQPDDFATYYCQQYHSYPITFGQGTRLEIK 11
